tested on: T1, human LILRB3 (human, UniProt O75022 24-631)
T1 construct: Over-expressed on CHO-s cells; also called hLILRB3
experiment: flow cytometry, LILRB3 CHOs
quantity measured: binding (fold over iso)
Record the result as a number with its unit.

Input J-17 (antibody, human IgG4 S228P, kappa, V domains shown, Human IgG4 chimera of murine origin; also called J-17.h) VH: QIQLVQSGPELKKPGETVKISCKASGYTFTTYGLSWVKQTPGKGLKWMGWINTYSGVPTYTDDFKGRFAFSLETSASTAYLQINNLKNEDTATYFCARPYDFDQVGFAYWGQGTLVTVSA VL: SIVMTQTPKFLLVSAGDRVSITCKASQTVSSDVAWYQQKAGQSPKLLIYYASNRYTGVPDRFTGSGYGTDFTFTISTVQAEDLAVYFCQQDYSSPFTFGGGSKLEIKR . Output binding (fold over iso): 0.99 fold over iso
